# PROTOCOL_SUMMARY: chemical genetic growth profiling, strain panel (AID 1159580);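 further: tested at 20 µM; growth read once vehicle control cultures reached saturation at 30 °C; 1 = growth at the plate median or of vehicle wells; lower values mean less growth of the strain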
# SETUP_CONDITIONS: S. cerevisiae deletion strains, growth OD, locus YGR052W, strain FMP48
In all, about 5,500 compounds went through this assay and about 2,000 (36%) were called active. Not shown: some 18% with an inconclusive outcome. No stated cut-off is given here; in the data, active means normalized growth mostly below about 0.91 (no sharp cut-off); inconclusive means no clear call, values can overlap the other calls; inactive means mostly above about 0.92. The list shows a part of the results.
The reply should be one of these categories: active, inactive

MOLECULE: COc1ccc(C2CC(c3ccccc3)=Nc3ccccc3S2)cc1OC (centres undefined)
GROUP_LABEL: inactive
//
MOLECULE: Cc1ccc(C(=O)O/N=C(/N)CSc2ncccc2C(F)(F)F)cc1
GROUP_LABEL: inactive

Could you check what this test reported for N/C(CSc1ccc(Cl)cc1)=N/OC(=O)c1ccc(C(F)(F)F)cc1 ?
inactive

Could you check what this test reported for Clc1ccc(-c2csc(Nc3ccccc3)n2)s1 ?
active

Could you check what this test reported for N/C(CSc1ncccc1C(F)(F)F)=N/OC(=O)Nc1cccc(Cl)c1 ?
inactive

Could you check what this test reported for Cc1nc(-c2ccc(C(F)(F)F)cn2)[nH]c(=O)c1Cl ?
inactive

Could you check what this test reported for CN(C(=O)N(C)c1ccc(Cl)cc1C(=O)c1ccccc1Cl)c1ccc(Cl)cc1C(=O)c1ccccc1Cl ?
active

Could you check what this test reported for CC(O)(CNCc1ccc(Cl)cc1)CSc1ccccc1Cl (centres undefined) ?
inactive

Could you check what this test reported for N#CCCCCOc1ccc2c(=O)cc(-c3ccccc3)oc2c1 ?
inactive

* * *

# PROTOCOL_SUMMARY: chemical genetic growth profiling, strain panel (AID 1159580)
# SETUP_CONDITIONS: S. cerevisiae deletion strains, growth OD, locus YEL061C, strain CIN8
The whole screen tested about 5,500 compounds, of which about 2,000 (36%) were called active. About 18% were inconclusive and are not listed. No stated cut-off is given here; in the data, active means normalized growth mostly below about 0.91 (no sharp cut-off); inconclusive means no clear call, values can overlap the other calls; inactive means mostly above about 0.92. This is one part of the list.
The reply should be one of these categories: active, inactive

Record excerpt, results attached:
MOLECULE: O=C1CCCc2c1c1ccccc1n2Cc1ccccc1
GROUP_LABEL: inactive
//
MOLECULE: C=CCc1ccccc1OCC(O)CNC(C)C (stereo unspecified)
GROUP_LABEL: inactive
//
MOLECULE: CN1CCOC(c2ccccc2)c2ccccc2C1 (stereo unspecified)
GROUP_LABEL: inactive
//
MOLECULE: CN1CCc2c(c3ccccc3n2Cc2ccccc2)C1
GROUP_LABEL: inactive
//
MOLECULE: O=c1c2ccccc2[se]n1-c1ccccc1
GROUP_LABEL: active

Now look at this one.
Could you check what this test reported for COC(=O)C[C@H]1C(C)(C)C(=O)[C@@H]2CC3=C4CC(OC)O[C@@H](c5ccoc5)[C@]4(C)CCC3[C@@]1(C)C2=O (stereo partly specified) ?
inactive

* * *

# PROTOCOL_SUMMARY: chemical genetic growth profiling, strain panel (AID 1159580)
# SETUP_CONDITIONS: S. cerevisiae deletion strains, growth OD, locus YFL029C, strain CAK1, active compounds read low
Screen size: about 5,500 compounds; about 2,000 (36%) were called active. Roughly 18% stayed inconclusive and do not appear here. The list shows a part of the results.
MEASUREMENT_LABEL: normalized growth
Answer with the value's number alone.

Look over these answered cases.
COMPOUND: CC(O)(CNCc1ccc(Cl)cc1)CSc1ccccc1Cl (stereo unspecified)
normalized growth: 0.962

COMPOUND: CCCc1cnc(N2CCN(CC(=O)N(c3ccccc3)C3CCCCC3)CC2)nc1
normalized growth: 0.993

COMPOUND: O=C(CSCc1nc(-c2ccc(Cl)cc2)cs1)N/N=C\c1cccs1
normalized growth: 0.973

COMPOUND: Clc1ccc(-c2csc(Nc3ccccc3)n2)s1
normalized growth: 0.923

COMPOUND: CC(C)(C)c1csc(NC(=O)c2ccc(Cl)cc2Cl)n1
normalized growth: 0.973

For the next question, use this compound.
Provide measured normalized growth value, entry: C/C(=N/Nc1nc(C(C)(C)C)cs1)c1ccc(Cl)c(Cl)c1
0.981

* * *

# PROTOCOL_SUMMARY: chemical genetic growth profiling, strain panel (AID 1159580);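 further: tested at 20 µM; growth read once vehicle control cultures reached saturation at 30 °C; 1 = growth at the plate median or of vehicle wells; lower values mean less growth of the strain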
# SETUP_CONDITIONS: S. cerevisiae deletion strains, growth OD, locus YNL183C, strain NPR1, active compounds read low
Hit rate of the full screen: of about 5,500 compounds, about 2,000 (36%) were called active. Inconclusive results (about 18%) are left out. The list shows a part of the results.
MEASUREMENT_LABEL: normalized growth
Answer with the value's number alone.

Look over these answered cases.
MOLECULE: CCN(CC)CCNC(=O)c1ccc(NC(C)=O)cc1
MEASUREMENT_LABEL: normalized growth
NUMBER: 0.959
//
MOLECULE: C#Cc1cccc(N=Cc2cc(Cl)cc(Br)c2O)c1
MEASUREMENT_LABEL: normalized growth
NUMBER: 0.156
//
MOLECULE: CCCCOc1cc(CC2CNC(=O)N2)ccc1OC (centres undefined)
MEASUREMENT_LABEL: normalized growth
NUMBER: 0.956
//
MOLECULE: CC(=O)Nc1ccc(OC(=O)c2ccccc2O)cc1
MEASUREMENT_LABEL: normalized growth
NUMBER: 0.858
//
MOLECULE: NCCc1c[nH]c2ccc(O)cc12
MEASUREMENT_LABEL: normalized growth
NUMBER: 0.949

Provide measured normalized growth value, entry: CCCCCCCCCc1ccc(O)cc1
0.00185

Provide measured normalized growth value, entry: CC(C)c1ccc(-c2cc(=O)c3ccccc3o2)cc1
0.861

Provide measured normalized growth value, entry: Nc1ccc(C(=O)Oc2ccccc2)c(O)c1
0.859

Provide measured normalized growth value, entry: CC(=O)Nc1ccc(O)cc1
0.955

Provide measured normalized growth value, entry: CCN(CCCCOC(=O)c1ccc(OC)c(OC)c1)C(C)Cc1ccc(OC)cc1 (centres undefined)
0.9

Provide measured normalized growth value, entry: CCCCCCc1ccc(O)cc1O
0.813

* * *

# PROTOCOL_SUMMARY: chemical genetic growth profiling, strain panel (AID 1159580);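 further: tested at 20 µM; growth read once vehicle control cultures reached saturation at 30 °C; 1 = growth at the plate median or of vehicle wells; lower values mean less growth of the strain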
# SETUP_CONDITIONS: S. cerevisiae deletion strains, growth OD, locus YDR001C, strain nth1, active compounds read low
The whole screen tested about 5,500 compounds, of which about 2,000 (36%) were called active. Inconclusive results (about 18%) are left out. This is one part of the list.
MEASUREMENT_LABEL: normalized growth
Answer with the value's number alone.

Look over these answered cases.
MOLECULE: CC1(C)O[C@@H]2CC3C4CCC5=CC(=O)C=C[C@]5(C)[C@@]4(F)[C@@H](O)C[C@]3(C)[C@]2(C(=O)CO)O1 (stereo partly drawn)
MEASUREMENT_LABEL: normalized growth
NUMBER: 1

MOLECULE: CC(=O)O[C@H]1C[C@H](O[C@H]2[C@@H](O)C[C@H](O[C@H]3[C@@H](O)C[C@H](O[C@H]4CC[C@@]5(C)C(CCC6C5C[C@@H](O)[C@]5(C)[C@@H](C7=CC(=O)OC7)CC[C@]65O)C4)O[C@@H]3C)O[C@@H]2C)O[C@H](C)[C@H]1O[C@@H]1O[C@H](CO)[C@@H](O)[C@H](O)[C@H]1O (stereo partly drawn)
MEASUREMENT_LABEL: normalized growth
NUMBER: 0.994

For the next question, use this molecule.
Provide measured normalized growth value, entry: Cc1cc2cc3c(C)cc(=O)oc3c(C)c2o1
0.984

* * *

# PROTOCOL_SUMMARY: chemical genetic growth profiling, strain panel (AID 1159580);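 further: tested at 20 µM; growth read once vehicle control cultures reached saturation at 30 °C; 1 = growth at the plate median or of vehicle wells; lower values mean less growth of the strain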
# SETUP_CONDITIONS: S. cerevisiae deletion strains, growth OD, locus YEL061C, strain CIN8, active compounds read low
The campaign covered roughly 5,500 compounds. About 2,000 (36%) were called active. Roughly 18% stayed inconclusive and do not appear here. This is one part of the list.
Each entry below lists one item and its recorded normalized growth value.
Answer with the value's number alone.

Look over these answered cases.
MOLECULE: Cc1cc(C(F)(F)F)c(C#N)c(=O)[nH]1
NUMBER: 1

MOLECULE: NCC(=O)CCC(=O)O
NUMBER: 1.01

MOLECULE: COc1cc([C@@H]2c3cc4c(cc3[C@H](O)[C@H]3COC(=O)[C@@H]23)OCO4)cc(OC)c1OC
NUMBER: 1.01

MOLECULE: CSC(=NCc1cccnc1)NC#N
NUMBER: 0.993

Provide measured normalized growth value, entry: CC1=C2C(=CO[C@H](C)[C@H]2C)C(=O)C(C(=O)O)=C1O
0.979

Provide measured normalized growth value, entry: CC(=O)O[C@@H]1CC2C(C)(C)C(=O)CC[C@]2(C)C2CC[C@@]3(C)[C@H](c4ccoc4)OC(=O)C4OC43[C@@]21C (stereo partly specified)
1

Provide measured normalized growth value, entry: C[n+]1cc2c3c(ccc2c2ccc4cc5c(cc4c21)OCO5)OCO3
0.0546

Provide measured normalized growth value, entry: COc1cc2cc[n+]3cc4c(OC)c(OC)ccc4cc3c2cc1OC
0.996

Provide measured normalized growth value, entry: CCN1CN=C(SCc2ccc(C)cc2)NC1
0.997

Provide measured normalized growth value, entry: COc1ccc2cc3[n+](cc2c1OC)CCc1cc2c(cc1-3)OCO2
0.567

Provide measured normalized growth value, entry: COC(=O)C1=C(Nc2ccc(Cl)cc2)CSC1
0.771
